- assayedTarget: PRMT5 (Homo sapiens, UniProt O14744)
- Construct: purchased Viva (custom protein)
- Sequence (O14744 whole entry): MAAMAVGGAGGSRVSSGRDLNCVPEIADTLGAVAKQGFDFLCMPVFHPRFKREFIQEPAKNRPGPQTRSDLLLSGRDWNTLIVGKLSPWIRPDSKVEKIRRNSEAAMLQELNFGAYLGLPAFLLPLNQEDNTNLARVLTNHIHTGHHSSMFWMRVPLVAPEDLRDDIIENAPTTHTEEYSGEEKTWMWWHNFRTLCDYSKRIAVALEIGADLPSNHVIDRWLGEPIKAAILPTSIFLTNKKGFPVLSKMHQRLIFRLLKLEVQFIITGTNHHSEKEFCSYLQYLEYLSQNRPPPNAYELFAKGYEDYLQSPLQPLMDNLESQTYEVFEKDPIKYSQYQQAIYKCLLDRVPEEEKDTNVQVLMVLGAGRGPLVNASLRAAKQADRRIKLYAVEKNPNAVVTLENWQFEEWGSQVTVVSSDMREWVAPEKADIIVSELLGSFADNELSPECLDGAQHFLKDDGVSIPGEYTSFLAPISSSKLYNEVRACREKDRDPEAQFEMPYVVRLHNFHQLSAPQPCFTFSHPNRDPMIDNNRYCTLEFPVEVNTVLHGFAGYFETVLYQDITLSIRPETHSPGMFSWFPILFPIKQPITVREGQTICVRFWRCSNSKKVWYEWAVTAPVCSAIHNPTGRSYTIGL
- Sequence (Q9BQA1 whole entry partner): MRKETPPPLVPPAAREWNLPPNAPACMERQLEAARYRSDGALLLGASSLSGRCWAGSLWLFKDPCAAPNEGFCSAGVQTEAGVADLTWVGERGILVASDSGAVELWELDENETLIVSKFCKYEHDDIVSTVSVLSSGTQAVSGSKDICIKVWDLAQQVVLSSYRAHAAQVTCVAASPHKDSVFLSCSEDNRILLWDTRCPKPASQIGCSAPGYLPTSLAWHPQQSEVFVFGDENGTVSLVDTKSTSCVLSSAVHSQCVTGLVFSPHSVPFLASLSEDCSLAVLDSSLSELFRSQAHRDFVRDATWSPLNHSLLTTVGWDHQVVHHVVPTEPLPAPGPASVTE
- protocol: PRMT5 IC50 assay in the presence of MTA as cofactor
- Format: biochemical
- conditionNotes: PRMT5, MTA as cofactor
Provide the reported IC50 of each item.

input: Need IC50, item CC(=O)N1CC(Nc2cc(C(=O)NC[C@H](O)CN3CCc4cc(OCc5ocnc5C)c(F)cc4C3)cc(N3CCCCC3)n2)C1
output: 50 to 500 nM

input: Need IC50, item Cc1ncoc1COc1ccc2c(c1Cl)CCN(C[C@@H](O)CNC(=O)c1cc(NC3CCCC3)ncn1)C2
output: 50 to 500 nM

input: Need IC50, item CC(C)N1CCN(c2cc(C(=O)NC[C@H](O)CN3CCc4cc(OCc5cnco5)ccc4C3)cc(NC3CCC3)n2)CC1
output: 50 to 500 nM

input: Need IC50, item O=C(NC[C@H](O)CN1CCc2c(ccc(OCc3cnco3)c2Cl)C1)c1cc(NC2COC2)nc(N2CCCCC2)n1
output: 50 to 500 nM

input: Need IC50, item COc1ccc(C(=O)N2CCc3cc(C(=O)NC[C@H](O)CN4CCc5c(ccc(OCc6cnco6)c5C)C4)ccc3C2)cc1
output: 50 to 500 nM

input: Need IC50, item O=C(NC[C@H](O)CN1CCc2cc(OCc3cnco3)ccc2C1)c1cncc(NC2CCOCC2)c1
output: 500 to 5000 nM

input: Need IC50, item Cc1ncoc1COc1ccc2c(c1)CCN(C[C@@H](O)CNC(=O)c1cc(NC3CCC3)nc(OCCN(C)C)c1)C2
output: < 50 nM

input: Need IC50, item Cc1ncoc1COc1ccc2c(c1)CCN(C[C@@H](O)CNC(=O)c1ccnc(NC3CC4(CC4)C3)c1)C2
output: 50 to 500 nM

input: Need IC50, item CC(=O)N1CCC(Nc2cc(C(=O)NC[C@H](O)CN3CCc4cc(OCc5ocnc5C)ccc4C3)cc(N3CCN(C(C)=O)CC3)n2)CC1
output: 50 to 500 nM

input: Need IC50, item O=C(NC[C@H](O)CN1CCc2c(ccc(OCc3cnco3)c2Cl)C1)c1cc(NC2CCCC2)ncn1
output: 500 to 5000 nM

input: Need IC50, item O=C(NC[C@H](O)CN1CCc2cc(OCc3cnco3)ccc2C1)c1ccnc(NC2CCCC2)c1
output: 50 to 500 nM

input: Need IC50, item CC(=O)N1CCN(c2cc(C(=O)NC[C@H](O)CN3CCc4cc(OCc5ocnc5C)ccc4C3)cc(NC3CCC3)n2)CC1
output: 50 to 500 nM

input: Need IC50, item CC(C)(C)N1CCN(c2nc(NC3COC3)cc(C(=O)NC[C@H](O)CN3CCc4cc(OCc5cnco5)ccc4C3)n2)CC1
output: 50 to 500 nM

input: Need IC50, item O=C(NC[C@H](O)CN1CCc2cc(OCc3c[nH]nn3)ccc2C1)c1ccnc(NC2CCC2)c1
output: 500 to 5000 nM

input: Need IC50, item Cc1c(OCc2cnco2)ccc2c1CCN(C[C@@H](O)CNC(=O)c1cccc(NC3CCC3)c1)C2
output: 50 to 500 nM

input: Need IC50, item Cc1ncoc1COc1ccc2c(c1C)CCN(C[C@@H](O)CNC(=O)c1cc(NC3CCC3)ccn1)C2
output: 50 to 500 nM

input: Need IC50, item O=C(NC[C@H](O)CN1CCc2cc(OCc3cnco3)ccc2C1)c1cc(NC2CCOCC2)ccn1
output: 500 to 5000 nM

input: Need IC50, item CCC(=O)N1CCN(c2nc(NC3COC3)cc(C(=O)NC[C@H](O)CN3CCc4c(ccc(OCc5cnco5)c4Cl)C3)n2)CC1
output: 50 to 500 nM

input: Need IC50, item CC(=O)N1CCC(Nc2cc(C(=O)NC[C@H](O)CN3CCc4c(C)c(OCc5ocnc5C)cc(F)c4C3)cc(N3CCCCC3)n2)CC1
output: 500 to 5000 nM

input: Need IC50, item CCC(=O)N1CCN(c2cc(C(=O)NC[C@H](O)CN3CCc4cc(OCc5ocnc5C)ccc4C3)cc(NC3CCC3)n2)CC1
output: 50 to 500 nM

input: Need IC50, item Cc1c(OCc2cn[nH]c2)ccc2c1CCN(C[C@@H](O)CNC(=O)c1ccnc(NC3CCC3)c1)C2
output: 50 to 500 nM

input: Need IC50, item Cc1ncoc1COc1ccc2c(c1C)CCN(C[C@@H](O)CNC(=O)c1cccc(NC3CCC3)c1)C2
output: 50 to 500 nM

input: Need IC50, item CC(=O)N1CC(Nc2cc(C(=O)NC[C@H](O)CN3CCc4cc(OCc5cnco5)ccc4C3)nc(C(C)C)n2)C1
output: 50 to 500 nM

input: Need IC50, item Cc1c(OCc2cnco2)ccc2c1CCN(C[C@@H](O)CNC(=O)c1ccnc(NC3CCN(C(=O)C4CC4)CC3)c1)C2
output: 50 to 500 nM

input: Need IC50, item CC(=O)N1CCC(Nc2cc(C(=O)NC[C@H](O)CN3CCc4c(ccc(OCc5cnco5)c4C)C3)ccn2)CC1
output: 50 to 500 nM

input: Need IC50, item CC(=O)N1CCC(Nc2cc(C(=O)NC[C@H](O)CN3CCc4c(C)c(OCc5ocnc5C)cc(F)c4C3)ncn2)CC1
output: 50 to 500 nM

input: Need IC50, item CC1(CCC(=O)N2CCC(Nc3cc(C(=O)NC[C@H](O)CN4CCc5cc(OCc6cnco6)ccc5C4)ncn3)CC2)N=N1
output: 50 to 500 nM
